Values compiled from ChEMBL document CHEMBL2218924.

Tested target: Cyclin-dependent kinase 2/cyclin A (Homo sapiens) (UniProt P24941+P20248+P78396)
Test conditions: at 1 µM
Quantity measured: residual activity (%)
Lab book: enter the figure in %, no units written.

Retrieve residual activity measured for c1ccc(-c2cnc(Nc3ccc(OCCN4CCCC4)cc3)s2)cc1 and print it. 147

Retrieve residual activity measured for NC(=O)c1cccc(-c2cc(Nc3ccc(OC(F)(F)F)cc3)ncn2)c1 and print it. 139

Retrieve residual activity measured for O=C(CCCc1ccc(-c2ccccc2F)cc1)Nc1ccc(O)cc1 and print it. 96

Retrieve residual activity measured for Nc1ncnc2c1cnn2-c1ccccc1 and print it. 125

Retrieve residual activity measured for O=C1NC(=O)C(c2cn(CCCO)c3ncccc23)=C1c1cnccn1 and print it. 84

Retrieve residual activity measured for CC(C)(C)n1nc(Cc2cccc3ccccc23)c2c(N)ncnc21 and print it. 130

Retrieve residual activity measured for Nc1ncnc2c1c(-c1ccc(Oc3ccccc3)cc1)cn2C1CCCC1 and print it. 113

Retrieve residual activity measured for CCN(CC)CCNC(=O)c1c(C)[nH]c(/C=C2\C(=O)Nc3ccc(Cl)cc32)c1C and print it. 134

Retrieve residual activity measured for Cn1sc(=O)n(Cc2ccccc2)c1=O and print it. 79

Retrieve residual activity measured for O=C1Nc2ccc(Cl)cc2/C1=C/c1cc(Cl)c(O)c(Cl)c1 and print it. 118

Retrieve residual activity measured for NCCNc1ncc(C(N)=O)c(Nc2cccc(C(F)(F)F)c2)n1 and print it. 131

Retrieve residual activity measured for COc1cc2ncnc(Nc3cccc(Cl)c3)c2cc1OC and print it. 138

Retrieve residual activity measured for Oc1cccc(-c2nc(N3CCOCC3)c3oc4ncccc4c3n2)c1 and print it. 129

Retrieve residual activity measured for N#C/C(=C1/Nc2ccccc2S1)c1ccnc(NCCc2cccnc2)n1 and print it. 81

Retrieve residual activity measured for O=C1Nc2ccccc2/C1=C\c1c(Cl)[nH]c2ccccc12 and print it. 83

Retrieve residual activity measured for NC(=O)c1ccc(-c2nc(-c3ccc4c(c3)OCCO4)c(-c3ccccn3)[nH]2)cc1 and print it. 96

Retrieve residual activity measured for Fc1ccc(-c2nc3n(c2-c2ccncc2)CCS3)cc1 and print it. 83

Retrieve residual activity measured for Nc1nccc(-c2c(-c3ccc(F)cc3)ncn2C2CCNCC2)n1 and print it. 79

Retrieve residual activity measured for CC(C)c1nn(-c2c(Cl)cccc2Cl)c2nc(Cc3ccc(OCCO)cc3)[nH]c(=O)c12 and print it. 0

Retrieve residual activity measured for O=C(c1cc2cc(O)ccc2[nH]1)c1cc2cc(O)ccc2[nH]1 and print it. 78

Retrieve residual activity measured for CCCCc1c(-c2ccc(OC)cc2)[nH]c2nccnc12 and print it. 48

Retrieve residual activity measured for N#Cc1c(NC(=O)c2cccc3ccccc23)sc2c1CCCC2 and print it. 96

Retrieve residual activity measured for O=C1NC(=O)C(c2c[nH]c3ccccc23)=C1c1c[nH]c2ccccc12 and print it. 97

###

Tested target: Tyrosine-protein kinase FRK (Homo sapiens) (UniProt P42685)
Sequence (P42685 whole entry): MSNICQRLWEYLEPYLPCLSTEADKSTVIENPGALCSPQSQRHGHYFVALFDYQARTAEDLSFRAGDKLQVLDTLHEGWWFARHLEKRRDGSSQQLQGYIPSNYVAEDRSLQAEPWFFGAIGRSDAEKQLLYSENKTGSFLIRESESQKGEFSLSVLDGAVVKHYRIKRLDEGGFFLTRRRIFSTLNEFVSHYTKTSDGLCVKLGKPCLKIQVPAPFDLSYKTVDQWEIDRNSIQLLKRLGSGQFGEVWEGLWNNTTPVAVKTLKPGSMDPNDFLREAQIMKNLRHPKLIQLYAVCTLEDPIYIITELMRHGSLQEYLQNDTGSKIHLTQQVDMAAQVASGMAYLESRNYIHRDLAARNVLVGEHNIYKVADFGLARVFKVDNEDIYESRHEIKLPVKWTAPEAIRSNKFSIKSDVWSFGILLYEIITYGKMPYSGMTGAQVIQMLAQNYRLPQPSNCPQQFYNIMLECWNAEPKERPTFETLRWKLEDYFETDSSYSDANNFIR
Test conditions: at 10 µM
Please go through the items and note down their residual activity.
Lab book: enter the figure in %, no units written.

Retrieve residual activity measured for CCCC(=O)Oc1ccc2[nH]c(C(=O)c3cc4ccccc4[nH]3)cc2c1 and print it. 85

Retrieve residual activity measured for O=C(Nc1ccc(Cl)cc1)c1ccccc1NCc1ccncc1 and print it. 1

Retrieve residual activity measured for c1ccc(-c2cnc(Nc3ccc(OCCN4CCCC4)cc3)s2)cc1 and print it. 16

Retrieve residual activity measured for O=C1Cc2c([nH]c3ccc([N+](=O)[O-])cc23)-c2ccccc2N1 and print it. 46
